Test system: NCI-H522 lung
Experiment summary: NCI-60 one-dose screen, 48 h
Condition info: 10 µM unless noted
Compounds without any hit were thinned out: in the full panel of roughly 83,000, 20% have a hit. Activity calls are given as the source filed them. How the source made its calls: active means growth percent below 10; inactive means the rest.
Labels: True for active, False for inactive

- Compound: "COc1cc(-c2nc3sccn3c2-c2ccnc(NCCNS(=O)(=O)c3ccc(Cl)cc3)n2)ccc1F"
  Category label: "True"
- Compound: "COc1ccc(/C=C/C(c2cc(OC)c(OC)c(OC)c2)n2ccnc2)cc1O (stereo not drawn)"
  Category label: "False"
- Compound: "C[C@]1(O)CC(=O)[C@]2(O)C3=C(C=C[C@]2(O)C1)C(=O)c1c(O)cccc1C3=O"
  Category label: "True"

###

Test system: RXF 393 renal
Experiment summary: NCI-60 one-dose screen, 48 h
Condition info: 10 µM unless noted
About 83,000 compounds went through this panel and 20% of them were active in at least one assay; those are over-represented in the sample as a whole. Active and inactive are the calls of the source. How the source made its calls: active means growth percent below 10; inactive means the rest.
Labels: active, inactive

- Compound: "O=C(CN1CCN(c2cc3c(cc2F)c(=O)c(C(=O)O)cn3C2CC2)CC1)N/N=C/c1ccco1"
  Category label: "inactive"
- Compound: "Cc1ccc2c(-n3nc(C#N)c(C#N)c3N)cc(=O)[nH]c2c1"
  Category label: "inactive"
- Compound: "CCCCCCCCCCCCCCCCCC1=NC(C)(C)CN1CC(C)O (centres undefined)"
  Category label: "inactive"
- Compound: "C=C(CNCCO)[C@@H]1CC[C@]2(CO)CC[C@]3(C)[C@H](CC[C@@H]4[C@@]5(C)CCC(N)C(C)(C)[C@@H]5CC[C@]43C)[C@@H]12 (some centres undefined)"
  Category label: "inactive"
- Compound: "CCOC(=O)CC1CSC(Nc2ccccc2)=N1 (centres undefined)"
  Category label: "inactive"
- Compound: "C/C(Cc1ccc(Cl)cc1)=C(\\c1ccc(OCCCN(C)C)cc1)c1ccc(OC(=O)Cc2ccccc2)cc1"
  Category label: "inactive"
- Compound: "Cc1ccc(-c2csc(N(C(=O)N3CCN(c4cc5c(cc4F)c(=O)c(C(=O)O)cn5C4CC4)CC3)c3ccccc3)n2)cc1"
  Category label: "active"
- Compound: "CN(Cc1ccccc1)c1nc(Cl)c(C2CC(c3ccccc3)=NN2c2ccccc2)s1 (centres undefined)"
  Category label: "inactive"
- Compound: "CCN1C(=O)N(CC)C2C1NC(=S)N2/N=C/c1ccc(OC)cc1 (centres undefined)"
  Category label: "inactive"

###

Collected growth values appear next to each entry.
Test system: BT-549 breast
Experiment summary: NCI-60 one-dose screen, 48 h (100 = growth as untreated, 0 = no growth, -100 = all killed)
Condition info: 10 µM unless noted
This is part of a sample that, as a whole, favours compounds with a hit. Of some 83,000 tested, about 20% had one in any assay.
Observation type: growth (%)

- Smiles record: "C=C(C)[C@@H]1CCC[C@]2(C(=O)O)CC[C@]3(C)[C@@H](CC[C@@H]4[C@@]5(C)C/C(=C/c6ccncc6)C(=O)C(C)(C)[C@@H]5CC[C@]43C)[C@@H]12"
  Observation type: "growth"
  Meas value: 46.5
- Smiles record: "O=C(O)c1ccc(-c2ccc(/C=N/Nc3nc(Nc4ccccc4)nc(N4CCCCC4)n3)o2)cc1"
  Observation type: "growth"
  Meas value: -4.12
- Smiles record: "CCn1c(-c2cc3c([nH]c4ccccc43)c(-c3cccc(O)c3)n2)n[nH]c1=S"
  Observation type: "growth"
  Meas value: 26.7
- Smiles record: "COc1ccc(/C=C2\\COc3ccc(O)cc3C2=O)cc1"
  Observation type: "growth"
  Meas value: 87.8
